# credit: patent US11873298B2

Biological target: SCD1 (Homo sapiens)
Construct: host or cells: S. cerevisiae ole1Δ strain (W303 pdr1Δ pdr3Δ background), plasmid pRS316 with TDH3 promoter and CYC1 terminator
Sequence (O00767 1-359): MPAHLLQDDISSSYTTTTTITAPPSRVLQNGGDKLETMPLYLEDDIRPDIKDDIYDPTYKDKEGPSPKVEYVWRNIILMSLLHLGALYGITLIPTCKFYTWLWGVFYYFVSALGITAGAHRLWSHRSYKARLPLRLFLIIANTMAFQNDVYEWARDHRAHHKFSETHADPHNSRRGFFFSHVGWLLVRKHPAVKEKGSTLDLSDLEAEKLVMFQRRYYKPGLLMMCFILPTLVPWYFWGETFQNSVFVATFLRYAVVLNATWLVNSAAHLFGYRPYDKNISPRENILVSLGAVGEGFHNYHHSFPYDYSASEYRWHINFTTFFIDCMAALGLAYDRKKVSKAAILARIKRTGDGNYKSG
Test: Growth inhibition of humanized yeast strain expressing SCD1 as sole desaturase
Format: cell-based
Details: humanized yeast strain expressing SCD1
Overview of recorded SCD1 % Max Inhibition for various molecules

- Molecule: "CCN(Cc1nc(-c2ccc3c(c2)N(CC)C(=O)CO3)no1)C(=O)Cc1cccc2ccccc12 [Compound 494]"
  Unit text: "%"
  SCD1 % Max Inhibition: 79.67
- Molecule: "COc1ccc(-c2noc(CCNC(=O)COc3cc(O)c4c(c3)OC(C)(C)CC4=O)n2)cc1OC [Compound 486]"
  Unit text: "%"
  SCD1 % Max Inhibition: 76.95
- Molecule: "Cc1nn(C)c2cc(-c3noc(N4CCN(C(=O)c5ccccc5)CC4)n3)ccc12 [Compound 261]"
  Unit text: "%"
  SCD1 % Max Inhibition: 73.42
- Molecule: "Cc1nnc(C)c2cc(-c3noc(C4CCN(C(=O)CNC(=O)c5ccccc5)CC4)n3)ccc12 [Compound 105]"
  Unit text: "%"
  SCD1 % Max Inhibition: 41.38
